- Assay protocol: Stability in rat plasma assessed as compound remaining after 120 mins
- Format: ADME, cell-free
- Experimental setup: read-out: Stability
Measurement kind: remaining at 2 h (%)
Supply the numeric figure in %, leaving out any unit text.

### Prompt Please give the documented remaining at 2 h of `Cc1cc(SCc2nnc(-c3ccc(C(F)(F)F)cc3)s2)ccc1OCC(=O)O`
### Response 94.3

Origin of the recorded values: ChEMBL document CHEMBL6127055
